Reference for the values: ChEMBL document CHEMBL1155401

Method Summary: Inhibition of ROCK by enzyme-coupled luciferase-kinase assay
Consider the following compounds; for each one, report its IC50.
Quick note: give the figure in nM, leave out the unit.

Please give the measured IC50 for this compound: FC(F)(F)c1cc2nc(C3COc4ccccc4O3)[nH]c2cc1-c1ccncc1 (stereo not drawn)
2970

Please give the measured IC50 for this compound: CN(C)CCNC(=O)c1ccc2c(c1)CC(c1nc3ccc(-c4ccnc(N)n4)cc3[nH]1)CO2 (stereo not drawn)
1.5

Please give the measured IC50 for this compound: Nc1nccc(-c2ccc3nc(C4COc5ccc(C(=O)NC6CCCCC6)cc5C4)[nH]c3c2)n1 (stereo not drawn)
1.1

Please give the measured IC50 for this compound: COCCn1c(C2COc3ccccc3O2)nc2ccc(-c3ccncc3)cc21 (stereo not drawn)
11

Please give the measured IC50 for this compound: Nc1nccc(-c2ccc3nc(C4COc5ccc(C(=O)NCc6cccnc6)cc5C4)[nH]c3c2)n1 (stereo not drawn)
0.78

Please give the measured IC50 for this compound: c1ccc2c(c1)OCC(c1nc3ccc(-c4ccncc4)cc3n1CC1CC1)O2 (stereo not drawn)
24

Please give the measured IC50 for this compound: c1ccc2c(c1)OCC(c1nc3ccc(-c4ccncc4)cc3n1C1CCOCC1)O2 (stereo not drawn)
27

Please give the measured IC50 for this compound: COc1ccc2c(c1)CC(c1nc3ccc(-c4ccnc(N)n4)cc3[nH]1)CO2 (stereo not drawn)
1.7

Please give the measured IC50 for this compound: Cc1cc(-c2ccncc2)cc2[nH]c(C3COc4ccccc4O3)nc12 (stereo not drawn)
240

Please give the measured IC50 for this compound: Nc1nccc(-c2ccc3nc(C4COc5ccc(C(=O)NCCO)cc5C4)[nH]c3c2)n1 (stereo not drawn)
2.8

Please give the measured IC50 for this compound: CN(C)C(=O)c1ccc2c(c1)CC(c1nc3ccc(-c4ccnc(N)n4)cc3[nH]1)CO2 (stereo not drawn)
129

Please give the measured IC50 for this compound: c1ccc(Cn2c(C3COc4ccccc4O3)nc3ccc(-c4ccncc4)cc32)cc1 (stereo not drawn)
190

Please give the measured IC50 for this compound: c1ccc2c(c1)OCC(c1nc3ccc(-c4ccncc4)cc3[nH]1)O2 (stereo not drawn)
7.5

Please give the measured IC50 for this compound: COc1ccc2c(c1)CC(c1nc3c(OCCN(C)C)cc(-c4ccncc4)cc3[nH]1)CO2 (stereo not drawn)
440

Please give the measured IC50 for this compound: COc1ccc2c(c1)CC(c1nc3c(OCCCO)cc(-c4ccncc4)cc3[nH]1)CO2 (stereo not drawn)
183

Please give the measured IC50 for this compound: Nc1nccc(-c2ccc3nc(C4COc5ccc(C(=O)NCCc6ccccn6)cc5C4)[nH]c3c2)n1 (stereo not drawn)
0.43

Please give the measured IC50 for this compound: c1ccc2c(c1)OCC(c1nc3ccc(-c4ccncc4)cc3n1CCN1CCOCC1)O2 (stereo not drawn)
130

---

Method Summary: Inhibition of ROCK by enzyme-coupled luciferase-kinase assay
Endpoint Label: IC50 (nM)
Quick note: give the figure in nM, leave out the unit.

Please give the measured IC50 for this compound: c1ccc2c(c1)CC(c1nc3ccc(-c4ccncc4)cc3[nH]1)CO2 (centres undefined)
1.7

Please give the measured IC50 for this compound: CN(C)CCCNC(=O)c1ccc2c(c1)CC(c1nc3ccc(-c4ccnc(N)n4)cc3[nH]1)CO2 (centres undefined)
1.2

Please give the measured IC50 for this compound: COc1c(-c2ccncc2)ccc2nc(C3COc4ccccc4C3)[nH]c12 (centres undefined)
4.1

---

Consider the following molecules; for each one, report its pIC50.
Method Summary: Inhibition of PKA
Quick note: pIC50 values are minus log10 of concentrations in mol/L.

Please give the measured pIC50 for this molecule: c1ccc2c(c1)OCC(c1nc3ccc(-c4ccncc4)cc3n1C1CCOCC1)O2 (stereo unspecified)
6.29

Please give the measured pIC50 for this molecule: Nc1nccc(-c2ccc3nc(C4COc5ccc(C(=O)NCc6cccnc6)cc5C4)[nH]c3c2)n1 (stereo unspecified)
7.09

Please give the measured pIC50 for this molecule: CN(C)CCNC(=O)c1ccc2c(c1)CC(c1nc3ccc(-c4ccnc(N)n4)cc3[nH]1)CO2 (stereo unspecified)
6.48

Please give the measured pIC50 for this molecule: Nc1nccc(-c2ccc3nc(C4COc5ccc(C(=O)NCCc6ccccn6)cc5C4)[nH]c3c2)n1 (stereo unspecified)
6.52

Please give the measured pIC50 for this molecule: CN(C)CCCNC(=O)c1ccc2c(c1)CC(c1nc3ccc(-c4ccnc(N)n4)cc3[nH]1)CO2 (stereo unspecified)
6.57

Please give the measured pIC50 for this molecule: COc1cccc2c1OCC(c1nc3ccc(-c4ccnc(N)n4)cc3[nH]1)C2 (stereo unspecified)
6.63

Please give the measured pIC50 for this molecule: Nc1nccc(-c2ccc3nc(C4COc5ccc(C(=O)NCCc6cccnc6)cc5C4)[nH]c3c2)n1 (stereo unspecified)
6.35

Please give the measured pIC50 for this molecule: COc1ccc2c(c1)CC(c1nc3ccc(-c4ccnc(N)n4)cc3[nH]1)CO2 (stereo unspecified)
6.31

Please give the measured pIC50 for this molecule: Nc1nccc(-c2ccc3nc(C4COc5ccccc5C4)[nH]c3c2)n1 (stereo unspecified)
6.71

Please give the measured pIC50 for this molecule: FC(F)(F)c1cc2nc(C3COc4ccccc4O3)[nH]c2cc1-c1ccncc1 (stereo unspecified)
5.51

Please give the measured pIC50 for this molecule: c1ccc(Cn2c(C3COc4ccccc4O3)nc3ccc(-c4ccncc4)cc32)cc1 (stereo unspecified)
6.00

Please give the measured pIC50 for this molecule: c1ccc2c(c1)OCC(c1nc3ccc(-c4ccncc4)cc3n1CC1CC1)O2 (stereo unspecified)
6.07

Please give the measured pIC50 for this molecule: c1ccc2c(c1)CC(c1nc3ccc(-c4ccncc4)cc3[nH]1)CO2 (stereo unspecified)
6.60

Please give the measured pIC50 for this molecule: c1ccc(CCn2c(C3COc4ccccc4O3)nc3ccc(-c4ccncc4)cc32)cc1 (stereo unspecified)
5.06

Please give the measured pIC50 for this molecule: COc1ccc2c(c1)OCC(c1nc3ccc(-c4ccnc(N)n4)cc3[nH]1)C2 (stereo unspecified)
6.36

Please give the measured pIC50 for this molecule: Nc1nccc(-c2ccc3nc(C4COc5ccc(C(=O)NCc6ccccc6)cc5C4)[nH]c3c2)n1 (stereo unspecified)
7.11

---

Target Or Test System: Cytochrome P450 2D6 (Homo sapiens, UniProt P10635)
Sequence (P10635 whole entry): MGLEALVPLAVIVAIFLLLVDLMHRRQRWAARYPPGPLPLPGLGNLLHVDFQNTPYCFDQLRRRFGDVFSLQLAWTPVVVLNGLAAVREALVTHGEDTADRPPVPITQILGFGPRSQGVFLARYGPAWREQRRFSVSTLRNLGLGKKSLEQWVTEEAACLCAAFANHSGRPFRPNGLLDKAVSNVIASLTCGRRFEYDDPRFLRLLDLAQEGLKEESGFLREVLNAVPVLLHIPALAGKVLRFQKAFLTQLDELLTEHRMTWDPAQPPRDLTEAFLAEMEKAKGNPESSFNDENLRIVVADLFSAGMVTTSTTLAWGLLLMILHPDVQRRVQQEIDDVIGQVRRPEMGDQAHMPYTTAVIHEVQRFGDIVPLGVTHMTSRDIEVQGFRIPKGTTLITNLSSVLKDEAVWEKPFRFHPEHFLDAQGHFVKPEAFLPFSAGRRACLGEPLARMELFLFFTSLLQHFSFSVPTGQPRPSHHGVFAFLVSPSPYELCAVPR
Method Summary: Inhibition of CYP2D6
Type: ADME

Compound | Activity
Cn1c(C2COc3ccccc3O2)nc2ccc(-c3ccncc3)cc21 (stereo not drawn) | Active
FC(F)(F)c1cc2nc(C3COc4ccccc4O3)[nH]c2cc1-c1ccncc1 (stereo not drawn) | Active
Cc1c(-c2ccncc2)cc2[nH]c(C3COc4ccccc4O3)nc2c1C (stereo not drawn) | Active
